tested on: human iPS-derived cardiac progenitor cells (CPCs); experiment: CPC proliferation assay (nuclear count); format: cell-based; conditions: 10-point CR, variable between occasions, read-out: EC50 variation between occasions, lower end

# compound, EC50 [nM]
data = [
    ("CC1=C(/C=C/C(C)=C/C=C/C(C)=C/C(=O)O)C(C)(C)CCC1 [ATRA, all‐trans retinoic acid]", 50),
]

----------
target: RARB (beta) ligand binding domain (Homo sapiens, UniProt P10826); assay: RAR coactivator peptide recruitment assay, antagonist format, RARB; type: biochemical; conditions: read-out: RARβ pIC50 (converted)
This listing pairs molecules with measured IC50.
experimentalEndpoint: IC50

# molecule, measured
rows = [
    ("CC1(C)CCC(C)(C)c2cc(C3(c4ccc(C(=O)O)cc4)OCCO3)ccc21 [SR 11237]", "> 20 µM"),
    ("Cc1cc2c(cc1-c1cc(/C=C/C(=O)O)ccc1O)C(C)(C)CCC2(C)C [CD 3254]", "> 20 µM"),
    ("Cc1ccc(C2=CC(C)(C)Oc3c(Br)cc(C(=O)Nc4ccc(C(=O)O)c(F)c4)cc32)cc1 [AGN 194301]", "0.00126 µM"),
    ("CC1=C(/C=C/C(C)=C/C=C/C(C)=C/CO)C(C)(C)CCC1 [Retinol]", "> 20 µM"),
]

----------
Target: RARB (beta) ligand binding domain (Homo sapiens, UniProt P10826)
Sequence (P10826 183-417 limits assumed): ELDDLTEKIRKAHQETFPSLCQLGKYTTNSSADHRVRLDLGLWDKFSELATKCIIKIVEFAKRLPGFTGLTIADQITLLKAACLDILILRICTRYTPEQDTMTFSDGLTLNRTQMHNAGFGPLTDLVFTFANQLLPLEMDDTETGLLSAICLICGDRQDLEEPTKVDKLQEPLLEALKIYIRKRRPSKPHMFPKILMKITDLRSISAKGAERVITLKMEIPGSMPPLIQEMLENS
Assay: RAR LBD-SRC1-2 coactivator peptide recruitment assay, agonist format, RARB
Type: biochemical
Conditions: read-out: RARβ pEC50 (converted)
experimentalEndpoint: EC50

# smilesStructure, experimentalEndpoint, measured
records = [
    ("Cc1ccc(C2=CC(C)(C)Oc3c(Br)cc(C(=O)Nc4ccc(C(=O)O)c(F)c4)cc32)cc1", "EC50", "> 20 µM"),
    ("Cc1cc2c(cc1-c1cc(/C=C/C(=O)O)ccc1O)C(C)(C)CCC2(C)C", "EC50", "> 20 µM"),
    ("CC1=C(/C=C/C(C)=C/C=C/C(C)=C/CO)C(C)(C)CCC1", "EC50", "> 20 µM"),
    ("CC1(C)CCC(C)(C)c2cc(C(=O)Nc3ccc(C(=O)O)c(F)c3)ccc21", "EC50", "0.01 µM"),
    ("CC1(C)CCC(C)(C)c2cc(C3(c4ccc(C(=O)O)cc4)OCCO3)ccc21", "EC50", "> 20 µM"),
]
